result.type: IC50 (µM)
Number in µM, nothing else.

-- ask Query the reported IC50 for UniProtKB P81908; item: "Cc1ccc2[nH]c(-c3ccc(OCCN4CCCC4)cc3)nc2c1"
Sequence (P81908 whole entry): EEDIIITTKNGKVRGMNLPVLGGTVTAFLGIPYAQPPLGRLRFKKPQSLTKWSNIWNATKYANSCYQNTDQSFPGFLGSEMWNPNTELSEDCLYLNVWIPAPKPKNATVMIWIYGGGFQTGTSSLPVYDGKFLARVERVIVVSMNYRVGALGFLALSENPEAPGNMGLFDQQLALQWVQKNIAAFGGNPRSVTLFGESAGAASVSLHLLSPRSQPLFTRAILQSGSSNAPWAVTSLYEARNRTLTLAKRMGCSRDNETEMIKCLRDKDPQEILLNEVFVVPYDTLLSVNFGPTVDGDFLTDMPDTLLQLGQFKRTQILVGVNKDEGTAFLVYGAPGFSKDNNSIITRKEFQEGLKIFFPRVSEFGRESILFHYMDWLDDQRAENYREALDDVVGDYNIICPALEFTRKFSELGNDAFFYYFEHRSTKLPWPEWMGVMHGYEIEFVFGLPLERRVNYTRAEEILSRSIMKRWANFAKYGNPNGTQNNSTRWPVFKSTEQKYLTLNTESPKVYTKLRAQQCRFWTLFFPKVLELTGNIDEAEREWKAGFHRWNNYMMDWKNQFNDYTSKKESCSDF
-- reply 3.24

-- ask Give the reported IC50 for "Cc1ccc2[nH]c(-c3ccc(OCCN4CCCCC4)cc3)nc2c1" (system: UniProtKB P81908).
-- reply 1.37

-- ask Hi! What's the reported IC50 for "c1ccc2[nH]c(-c3ccc(OCCN4CCCC4)cc3)nc2c1" on UniProtKB P81908?
-- reply 23

-- ask So what IC50 did "CN(C)CCOc1ccc(-c2nc3ccccc3[nH]2)cc1" get with UniProtKB P81908?
-- reply 5.87

----------
Biological target: Acetylcholinesterase (Electrophorus electricus)
Sequence (O42275 whole entry): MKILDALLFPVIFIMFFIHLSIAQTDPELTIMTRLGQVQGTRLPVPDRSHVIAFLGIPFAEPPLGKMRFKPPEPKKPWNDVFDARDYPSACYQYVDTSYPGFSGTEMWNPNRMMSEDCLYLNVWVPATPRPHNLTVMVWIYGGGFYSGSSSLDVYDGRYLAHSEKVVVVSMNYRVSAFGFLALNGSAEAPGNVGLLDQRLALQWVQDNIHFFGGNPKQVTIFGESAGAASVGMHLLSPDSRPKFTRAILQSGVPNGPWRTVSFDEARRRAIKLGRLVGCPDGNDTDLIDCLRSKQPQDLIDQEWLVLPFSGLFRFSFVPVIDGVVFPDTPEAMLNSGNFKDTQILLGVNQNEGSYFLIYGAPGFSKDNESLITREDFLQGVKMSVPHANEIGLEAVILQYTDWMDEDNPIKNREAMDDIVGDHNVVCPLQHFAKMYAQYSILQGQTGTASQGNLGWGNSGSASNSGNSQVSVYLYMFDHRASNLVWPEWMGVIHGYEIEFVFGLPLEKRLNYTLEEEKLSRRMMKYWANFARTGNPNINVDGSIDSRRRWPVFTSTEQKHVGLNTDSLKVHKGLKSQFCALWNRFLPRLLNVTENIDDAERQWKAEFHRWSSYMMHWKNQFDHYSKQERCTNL
result.type: pIC50
To interpret pIC50, take it as minus log10 of a concentration measured in moles per litre.

-- ask Look up pIC50: "Cc1ccc2[nH]c(-c3ccc(O)cc3)nc2c1"
-- reply 4.80

-- ask What does the record list as pIC50 for "Cc1ccc2[nH]c(-c3ccc(OCCN4CCCCC4)cc3)nc2c1" ?
-- reply 6.08

-- ask Entry under review: "Oc1ccc(-c2nc3cc(Cl)ccc3[nH]2)cc1" . Reported pIC50?
-- reply 4.84

-- ask Which pIC50 value is on record for "Cc1ccc2[nH]c(-c3ccc(OCCN(C)C)cc3)nc2c1" ?
-- reply 5.30

-- ask I have this compound here, "CN(C)CCOc1ccc(-c2nc3ccccc3[nH]2)cc1" , and I need its recorded pIC50.
-- reply 4.88

-- ask Look up pIC50: "CCN(CC)CCOc1ccc(-c2nc3ccc(C)cc3[nH]2)cc1"
-- reply 5.63

-- ask // pIC50 lookup, key: "c1ccc2[nH]c(-c3ccc(OCCN4CCCCC4)cc3)nc2c1"
-- reply 5.97

-- ask Value lookup for pIC50; key = "CCN(CC)CCOc1ccc(-c2nc3ccccc3[nH]2)cc1"
-- reply 4.81

-- ask Param item = "CC(C)N(CCOc1ccc(-c2nc3ccccc3[nH]2)cc1)C(C)C" ; retrieve measured pIC50.
-- reply 5.92

-- ask May I ask what pIC50 has been recorded for "CCN(CC)CCOc1ccc(-c2nc3cc(Cl)ccc3[nH]2)cc1" ?
-- reply 5.46

-- ask I would be grateful if you could share the reported pIC50 for "c1ccc2[nH]c(-c3ccc(OCCN4CCCC4)cc3)nc2c1" .
-- reply 5.52

-- ask Fill in the blank: the reported pIC50 of "Clc1ccc2[nH]c(-c3ccc(OCCN4CCCC4)cc3)nc2c1" is ____.
-- reply 5.49

-- ask Item under review: "c1ccc2[nH]c(-c3ccc(OCCN4CCOCC4)cc3)nc2c1" . Reported pIC50?
-- reply 4.73

-- ask Given "CC(C)N(CCOc1ccc(-c2nc3ccc(Cl)cc3[nH]2)cc1)C(C)C" , state its recorded pIC50.
-- reply 6.24

-- ask Query: pIC50; subject: "Clc1ccc2nc(-c3ccc(OCCN4CCCCC4)cc3)[nH]c2c1"
-- reply 6.21

-- ask Value lookup for pIC50; key = "Clc1ccc2[nH]c(-c3ccc(OCCN4CCOCC4)cc3)nc2c1"
-- reply 4.96

-- ask So what does the record say about pIC50 for "CN(C)CCOc1ccc(-c2nc3ccc(Cl)cc3[nH]2)cc1" ?
-- reply 5.57

-- ask Fill blank: measured pIC50 of the compound "Cc1ccc2[nH]c(-c3ccc(OCCN4CCCC4)cc3)nc2c1" is ____.
-- reply 5.87

-- ask What value of measured pIC50 is listed for "Oc1ccc(-c2nc3ccccc3[nH]2)cc1" ?
-- reply 4.76

// data source = ChEMBL document CHEMBL2413025
